B1: POU domain, class 4, transcription factor 1, residues 266 to 347; numbered along this chain, Q01851 (parent)
chain: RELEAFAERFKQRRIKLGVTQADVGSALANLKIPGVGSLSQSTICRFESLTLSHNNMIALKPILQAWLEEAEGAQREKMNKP

- Variants of: B1
- EXPERIMENTAL_PROTOCOL: abundance fitness (aPCA) (normalised: wild type 0, dead -1); higher = more abundant; growth selection in yeast, the domain comes from the species named
- CONDITION_LABEL: Homo sapiens
The following variants are listed with their measured abundance fitness values.
In your answer, state the number alone without any accompanying words.

>>> reported_measurement("K78I")
-0.026
>>> reported_measurement("F47Q")
-1
>>> reported_measurement("F6N")
-0.79
>>> reported_measurement("L17P")
-1.06
>>> reported_measurement("P62C")
-0.429

Here's the next entry for you.
Ask | Give abundance fitness for L3E
Reply | -0.247
